experiment: chemical recovery into PDMS from spiked human plasma; higher = better extraction; settings: pooled human plasma; extraction method: PES with PDMS; equilibration time (d): 6
Catalogue of chemical recovery into PDMS readings, one per entry.
Please format your answer as a value with the unit trailing.

Reference set (8 entries):
# molecule, chemical recovery into PDMS
rows = [
    ("CCCCCCCCCCN(C)C", "0.000993%"),
    ("N#Cc1nn(-c2c(Cl)cc(C(F)(F)F)cc2Cl)c(N)c1[S+]([O-])C(F)(F)F (stereo unspecified)", "29%"),
    ("c1ccc2cc3c(cc2c1)-c1cccc2cccc-3c12", "93.8%"),
    ("CCCCCCCCn1sccc1=O", "36.3%"),
    ("CC12CC3CC(C)(C1)CC(N)(C3)C2 [Memantine]", "3.08%"),
    ("c1ccc(-c2ccc(C(c3ccccc3)n3ccnc3)cc2)cc1 (stereo unspecified)", "35.7%"),
    ("O=C1Nc2ccc(Cl)cc2C(C#CC2CC2)(C(F)(F)F)O1 (stereo unspecified)", "47.4%"),
    ("c1ccc2c(c1)=c1ccc3c4c(ccc=2c14)=c1ccccc1=3", "77.5%"),
]

Value of measured chemical recovery into PDMS for the entry C/C(=C\c1ccccc1)c1ccccc1 [trans-a-Methylstilbene] : 112%

Value of measured chemical recovery into PDMS for the entry CC(=O)c1cc(C(C)(C)C)cc2c1CCC2(C)C [Celestolide] : 34.7%

Value of measured chemical recovery into PDMS for the entry Nc1ccc(/N=N/c2ccccc2)cc1 : 11.3%

---

test: chemical recovery into PDMS from spiked human plasma; higher = better extraction; conditions: pooled human plasma; extraction method: PES with PDMS; equilibration time (d): 1
test-readout: chemical recovery into PDMS (%)
Your answer should be a plain number; it is taken to be in %.

Reference set (8 entries):
# molecule, readout-unit, chemical recovery into PDMS
measured = [
    ("CC(C)(C)Nc1nc(N)nc(Cl)n1", "%", 38),
    ("O=C(Nc1ccc(F)cc1)c1cccc(Oc2cccc(C(F)(F)F)c2)n1", "%", 50.6),
    ("CN(C)C(=O)Nc1ccc(Oc2ccc(Cl)cc2)cc1", "%", 37.3),
    ("c1ccc(-c2cccc(-c3ccccc3)c2)cc1", "%", 90.2),
    ("C[C@]12CCC(=O)C=C1CC[C@@H]1[C@@H]2CC[C@]2(C)C(=O)CC[C@@H]12", "%", 39.8),
    ("CC1(C)CC(=O)CC(C)(C)N1", "%", 0.707),
    ("O=S1OC[C@@H]2[C@H](CO1)[C@]1(Cl)C(Cl)=C(Cl)[C@]2(Cl)C1(Cl)Cl (stereo partly drawn) [beta-Endosulfan]", "%", 60.6),
    ("Nc1ccc(-c2ccc(N)c(Cl)c2)cc1Cl", "%", 3.87),
]

Next, consider the following molecule.
Value of measured chemical recovery into PDMS for the entry CCCCCCCCCCCCCC[N+](C)(C)[O-] [N,N-Dimethyltetradecylamine-N-oxide] : 0.599

---

test: chemical recovery by SPE of plasma after PDMS sampling; higher = better extraction; details: pooled human plasma; extraction method: HLB SPE of plasma after PES; equilibration time (d): 6
Classes based on chemical recovery by SPE of plasma: class 1 = under 8%, class 2 = from 8% up to 40%, class 3 = 40% and over

State the band of COc1ccc2c(c1)c(CC(=O)O)c(C)n2C(=O)c1ccc(Cl)cc1
class 2

State the band of c1ccc2cc3c(ccc4ccccc43)cc2c1
class 1

State the band of O=C(O)C(F)(F)C(F)(F)C(F)(F)F
class 2

State the band of CC(C)(C)NC(=O)[C@H]1CC[C@H]2[C@@H]3CC[C@H]4NC(=O)C=C[C@]4(C)[C@H]3CC[C@]12C [Finasteride]
class 1

State the band of CCc1cccc(C)c1NC(=O)CS(=O)(=O)O [Metolachlor CGA 368-208]
class 3

State the band of Cc1cc(Cl)ccc1OCC(=O)O
class 3

State the band of O=c1c(-c2ccc(O)cc2)coc2cc(O)cc(O)c12
class 3

State the band of CC(C)(C)Nc1nc(N)nc(Cl)n1
class 1
